Source of measurements: ChEMBL document CHEMBL3588803

Assay: Clearance in human hepatic microsomes
Format: ADME
Conditions: liver microsomes, read-out: CLH
PROPERTY_NAME: microsomal CLint

microsomal CLint for CCCc1cc(C(O)(C(F)(F)F)C(F)(F)F)ccc1OCCCCN1C(=O)NC(C)(c2ccc3c(c2)OCO3)C1=O (stereo unspecified) ?
31 µL/min/mg

###

Test: Plasma concentration in CE-2 chow diet-fed golden Syrian hamster at 100 mg/kg, po after 24 hrs by HPLC-LC-MS/MS method
Type: ADME, organism-based, Mesocricetus auratus
PROPERTY_NAME: concentration at 24 h (nM)
Give just the number in nM; leave the unit off.

Returns the measured concentration at 24 h for the input molecule. Input: CCCc1cc(C(O)(C(F)(F)F)C(F)(F)F)cc(CCC)c1OCCCCN1C(=O)NC(C)(c2ccc(OC(C)C)cc2)C1=O (stereo unspecified)
100

###

Assay: Plasma concentration in CE-2 chow diet-fed golden Syrian hamster at 100 mg/kg, po after 4 hrs by HPLC-LC-MS/MS method
Assay type: ADME, organism-based, Mesocricetus auratus
PROPERTY_NAME: concentration at 4 h

Reported concentration at 4 h for CCCc1cc(C(O)(C(F)(F)F)C(F)(F)F)cc(CCC)c1OCCCCN1C(=O)NC(C)(c2ccc(OC(C)C)cc2)C1=O (stereo unspecified) : what is it?
290 nM

###

Experiment: Plasma concentration in CE-2 chow diet-fed golden Syrian hamster at 100 mg/kg, po after 10 hrs by HPLC-LC-MS/MS method
Assay type: ADME, organism-based, Mesocricetus auratus
PROPERTY_NAME: concentration at 10 h

What value of concentration at 10 h has been reported for the following compound? CCCc1cc(C(O)(C(F)(F)F)C(F)(F)F)cc(CCC)c1OCCCCN1C(=O)NC(C)(c2ccc(OC(C)C)cc2)C1=O (stereo unspecified)
110 nM
